assayComment: Solubility study in water (saturated solutions, HPLC linear equation; Pharmacopoeia and BCS classification)
Type: physicochemical
testSettings: saturated solution, standing 4 hours
Structures can show the parent of a compound that is named as a salt.
measuredMetric: Solubility in water, 4 h (mg/mL)

compound	Solubility in water, 4 h [mg/mL]
C=CC(=O)Nc1cc(Nc2nccc(-c3cn(C)c4cccnc34)n2)c(OC)cc1N(C)CCN(C)C [phosphate salt (amorphous)]	92.14
C=CC(=O)Nc1cc(Nc2nccc(-c3cn(C)c4cccnc34)n2)c(OC)cc1N(C)CCN(C)C [phosphate salt (crystal form C)]	133.32

I: C=CC(=O)Nc1cc(Nc2nccc(-c3cn(C)c4cccnc34)n2)c(OC)cc1N(C)CCN(C)C [citrate salt]
II: C=CC(=O)Nc1cc(Nc2nccc(-c3cn(C)c4cccnc34)n2)c(OC)cc1N(C)CCN(C)C [p-toluenesulfonate salt]
III: C=CC(=O)Nc1cc(Nc2nccc(-c3cn(C)c4cccnc34)n2)c(OC)cc1N(C)CCN(C)C [hydrochloride salt]
IV: C=CC(=O)Nc1cc(Nc2nccc(-c3cn(C)c4cccnc34)n2)c(OC)cc1N(C)CCN(C)C [mesylate salt]
*Q* // ascending sort on recorded Solubility in water, 4 h List the labels, following the order given in the request.
*A* II, III, I, IV
